Test: Kinetic aqueous solubility of the compound
Assay type: physicochemical
Conditions: buffer; read-out: Kinetic_solubility
metric: solubility kinetic

// below: answered molecules
1) CC1=C(C(=O)Nc2cc(B(O)O)ccn2)C(c2ccc(C)cc2Cl)N=C(Nc2nc3ccc(F)cc3o2)N1 (stereo not drawn)    < 1 µg/mL
2) CC1=C(C(=O)Nc2cc(C(=O)O)ccn2)C(c2cccc(F)c2Cl)N=C(Nc2nc3ccc(F)cc3o2)N1 (stereo not drawn)    < 10000 µg/mL
3) CC1=C(C(=O)Nc2ccc(C(=O)O)cn2)C(c2ccccc2Cl)N=C(Nc2nc3ccc(F)cc3o2)N1 (stereo not drawn)    > 77 µg/mL
4) CC1=C(C(=O)Nc2cccc(Br)c2)C(c2ccccc2Cl)N=C(Nc2nc3ccccc3o2)N1 (stereo not drawn)    < 1 µg/mL
5) CC1=C(C(=O)Nc2cc(C(=O)O)ccn2)C(c2ccc(N3CCCC3)cc2Cl)N=C(Nc2nc3ccc(F)cc3o2)N1 (stereo not drawn)    > 87 µg/mL

Challenge: Fill in: solubility kinetic of COc1ccc(C2N=C(Nc3nc4ccccc4o3)NC(C)=C2C(=O)Nc2nncs2)c(Cl)c1 (stereo not drawn) is ___
Response given: < 1 µg/mL

Challenge: Fill in: solubility kinetic of CC1=C(C(=O)Nc2cc(C(=O)O)ccn2)C(c2ccccc2Cl)N=C(Nc2nc3cccc([N+](=O)[O-])c3o2)N1 (stereo not drawn) is ___
Response given: 7.3 µg/mL

Challenge: Fill in: solubility kinetic of CC1=C(C(=O)Nc2cc(C(=O)O)ccn2)[C@H](c2ccc(C)cc2Cl)N=C(Nc2nc3cccc(N)c3o2)N1 is ___
Response given: > 53 µg/mL

* * *

Test: Inhibition of recombinant mouse GALK1 using ATP as substrate incubated for 1 hr and measured by Kinase-Glo assay
Conditions: read-out: IC50
metric: IC50 (µM)

1: CC1=C(C(=O)Nc2nncs2)C(c2ncccc2Br)N=C(Nc2nc3ccccc3o2)N1 (centres undefined)
2: CC1=C(C(=O)Nc2cc(C(=O)O)ccn2)C(c2ccccc2Cl)N=C(Nc2nc3cccc(N)c3o2)N1 (racemic)
3: O=C(Nc1nncs1)C1=C(C(F)(F)F)NC(Nc2nc3ccccc3o2)=NC1c1ccccc1Cl (centres undefined)
4: CCn1cc(C(C)NC(=O)C2=C(C)NC(Nc3nc4cccc(N)c4o3)=NC2c2ccc(C)cc2Cl)cn1 (centres undefined)
5: CCn1cc(CNC(=O)C2=C(C)NC(Nc3nc4ccc(F)c(N)c4o3)=NC2c2ccc(Cl)cc2Cl)cn1 (centres undefined)
Challenge: Method: rank(items above, key=IC50, ascending=True) // list labels; follow requested order
Response given: 4, 5, 2, 1, 3

P: CC1=C(C(=O)Nc2cc(C(=O)O)ccn2)C(c2ccc(F)cc2Cl)N=C(Nc2nc3ccc(F)cc3o2)N1 (centres undefined)
Q: CC1=C(C(=O)Nc2ccc(O)cc2)C(c2ccccc2Cl)N=C(Nc2nc3ccccc3o2)N1 (centres undefined)
Challenge: When their IC50 values are compared, which is larger, P or Q ? Please indicate the selected item by its label.
Response given: Q
(Q: 9.68 µM, P: 4.32 µM)

A: CC1=C(C(=O)Nc2ncc(CO)s2)C(c2ccccc2Cl)N=C(Nc2nc3ccccc3o2)N1 (centres undefined)
B: CC1=C(C(=O)NCc2cncs2)C(c2ccccc2Cl)N=C(Nc2nc3ccccc3o2)N1 (centres undefined)
C: CC1=C(C(=O)NCc2cnn(Cc3ccccc3)c2)C(c2ccc(C)cc2Cl)N=C(Nc2nc3ccc(F)cc3o2)N1 (centres undefined)
Challenge: Give the ascending ranking of the items by reported IC50. // list labels; follow requested order
Response given: C, B, A
(C: 5.44 µM, B: 12.2 µM, A: 19.3 µM)

1: COc1ccccc1CNC(=O)C1=C(C)NC(Nc2nc3ccccc3o2)=NC1c1ccccc1Cl (centres undefined)
2: COc1ccc2nc(NC3=NC(c4ccccc4Cl)C(C(=O)Nc4cc(C(=O)O)ccn4)=C(C)N3)oc2c1 (centres undefined)
Challenge: Given the listed items, does 1 or 2 have the lesser reported IC50? Please indicate the selected item by its label.
Response given: 1

1: CC1=C(C(=O)NCc2c(C)nn(C)c2C)C(c2ccc(C)cc2Cl)N=C(Nc2nc3ccc(F)cc3o2)N1 (centres undefined)
2: CC1=C(C(=O)Nc2ccc(N(C)C)cc2)C(c2ccccc2Cl)N=C(Nc2nc3ccccc3o2)N1 (centres undefined)
Challenge: Given the listed items, does 1 or 2 have the lesser reported IC50? Please indicate the selected item by its label.
Response given: 1

1: CC1=C(C(=O)Nc2nc(CO)cs2)C(c2ccccc2Cl)N=C(Nc2nc3ccccc3o2)N1 (centres undefined)
2: CC1=C(C(=O)Nc2cccc(F)c2)C(c2ccccc2Cl)N=C(Nc2nc3ccccc3o2)N1 (centres undefined)
Challenge: When their IC50 values are compared, which is larger, 1 or 2 ? Please indicate the selected item by its label.
Response given: 1

P: CC1=C(C(=O)Nc2cc(C(=O)O)ccn2)C(c2ccccc2Cl)N=C(Nc2nc3ccccc3o2)N1C (centres undefined)
Q: CC1=C(C(=O)Nc2cc(-c3nn[nH]n3)ccn2)C(c2ccc(C)cc2Cl)N=C(Nc2nc3ccc(F)cc3o2)N1 (centres undefined)
R: CC1=C(C(=O)Nc2nncs2)C(c2ccccc2C)N=C(Nc2nc3ccccc3o2)N1 (centres undefined)
S: COc1ccc(C2N=C(Nc3nc4ccc(F)cc4o3)NC(C)=C2C(=O)Nc2cc(C(=O)O)ccn2)c(Cl)c1 (centres undefined)
Challenge: Arrange the 4 molecules from largest to smallest IC50. // list labels; follow requested order
Response given: P, R, Q, S
(P: 34.4 µM, R: 21.7 µM, Q: 9.68 µM, S: 3.06 µM)

1: CC1=C(C(=O)Nc2ccc(C#N)cc2)C(c2ccccc2Cl)N=C(Nc2nc3ccccc3o2)N1 (centres undefined)
2: CCn1cc(CNC(=O)C2=C(C)NC(Nc3nc4cccc(N)c4o3)=NC2c2ccc(F)cc2Cl)cn1 (centres undefined)
3: CCn1cc(CNC(=O)C2=C(C)NC(Nc3nc4cccc(N)c4o3)=NC2c2ccc(C)cc2Cl)cn1 (centres undefined)
4: CCn1ncc(CNC(=O)C2=C(C)NC(Nc3nc4ccc(F)c(N)c4o3)=NC2c2ccc(C)cc2Cl)c1F (centres undefined)
Challenge: Arrange the 4 molecules from largest to smallest IC50. // list labels; follow requested order
Response given: 1, 2, 3, 4
(1: 13.7 µM, 2: 7.69 µM, 3: 3.06 µM, 4: 1.09 µM)

* * *

Experiment: Kinetic aqueous solubility of the compound
Assay type: physicochemical
Conditions: buffer; read-out: Kinetic_solubility
metric: solubility kinetic

// below: answered compounds
1. CC1=C(C(=O)Nc2cccc(CO)c2)C(c2ccccc2Cl)N=C(Nc2nc3ccccc3o2)N1 (centres undefined)    < 1 µg/mL
2. CC1=C(C(=O)Nc2cc(C(=O)O)ccn2)C(c2ccccc2Cl)N=C(Nc2nc3ccc(Cl)cc3o2)N1 (centres undefined)    6.3 µg/mL
3. CC1=C(C(=O)Nc2ccc([N+](=O)[O-])cc2)C(c2ccccc2Cl)N=C(Nc2nc3ccccc3o2)N1 (centres undefined)    < 1 µg/mL

Challenge: Fill in: solubility kinetic of CC1=C(C(=O)Nc2cc(C(=O)O)ccn2)C(c2ccc(-c3ccc(C)nc3)cc2Cl)N=C(Nc2nc3ccc(F)cc3o2)N1 (centres undefined) is ___
Response given: > 90 µg/mL

Challenge: Fill in: solubility kinetic of CC1=C(C(=O)Nc2ccccc2CO)C(c2ccccc2Cl)N=C(Nc2nc3ccccc3o2)N1 (centres undefined) is ___
Response given: < 1 µg/mL

Challenge: Fill in: solubility kinetic of COc1ccc([C@@H]2N=C(Nc3nc4cccc(N)c4o3)NC(C)=C2C(=O)Nc2cc(C(=O)O)ccn2)c(Cl)c1 is ___
Response given: > 81 µg/mL

Challenge: Fill in: solubility kinetic of COc1ccc2oc(NC3=NC(c4ccccc4Cl)C(C(=O)Nc4nnc(-c5cccnc5)s4)=C(C)N3)nc2c1 (centres undefined) is ___
Response given: < 1 µg/mL

Challenge: Fill in: solubility kinetic of CC1=C(C(=O)Nc2cc(C(=O)O)ccc2F)C(c2ccccc2Cl)N=C(Nc2nc3ccc(F)cc3o2)N1 (centres undefined) is ___
Response given: 35.7 µg/mL

* * *

Assay: Kinetic aqueous solubility of the compound
Format: physicochemical
Conditions: buffer; read-out: Kinetic_solubility
metric: solubility kinetic (µg/mL)

1) CC1=C(C(=O)NCc2cnn(C)c2)C(c2ccc(C)cc2Cl)N=C(Nc2nc3cccnc3o2)N1 (centres undefined)    4.8

1: COCCNC(=O)C1CC(=O)C2=C(C1)NC(Nc1nc3ccccc3o1)=NC2c1ccccc1Cl (centres undefined)
2: CC1=C(C(=O)Nc2cc(C(=O)O)ccn2)[C@@H](c2ccc(C)cc2Cl)N=C(Nc2nc3ccc(F)cc3o2)N1
Challenge: When their solubility kinetic values are compared, which is larger, 1 or 2 ? Please indicate the selected item by its label.
Response given: 2

* * *

Test: Inhibition of recombinant mouse GALK1 using ATP as substrate incubated for 1 hr and measured by Kinase-Glo assay
Conditions: read-out: IC50
metric: IC50 (µM)

// below: answered molecules
1) COc1ccc([C@H]2N=C(Nc3nc4cccc(N)c4o3)NC(C)=C2C(=O)Nc2cc(C(=O)O)ccn2)c(Cl)c1    34.4
2) CC1=C(C(=O)NCc2cnn(C)c2)C(c2ccc(C)cc2Cl)N=C(Nc2nc3ccc(F)c(C(=O)O)c3o2)N1 (stereo not given)    21.7
3) O=C1NCCC2=C1C(c1ccccc1Cl)N=C(Nc1nc3ccccc3o1)N2 (stereo not given)    21.7

1: CC1=C(C(=O)Nc2ccc(Cl)cc2)C(c2ccccc2Cl)N=C(Nc2nc3ccccc3o2)N1 (stereo not given)
2: CC1=C(C(=O)Nc2nnc(-c3cccnc3)s2)C(c2ccccc2Cl)N=C(Nc2nc3cc(F)ccc3o2)N1 (stereo not given)
Challenge: When their IC50 values are compared, which is larger, 1 or 2 ? Please indicate the selected item by its label.
Response given: 2
